Values were extracted from ChEMBL document CHEMBL1142415.

Entries and their inhibition values follow.
target: Pantothenate synthetase (Mycobacterium tuberculosis); assay: Inhibition of Mycobacterium tuberculosis pantothenate synthetase at 100 uM
Respond numerically; units are % and should not be typed.

>>> print(df.to_string())
                                   compound                                    system  result_type  unit_of_measure  numeric_value
0  CC(C)(C)C1CCc2onc(C(=O)Nc3cnn(Cc4ccc(C(=O)O)cc4)c3)c2C1 (configuration not stated)  Pantothenate synthetase (Mycobacterium tuberculosis)   inhibition                %             99
1  Cc1ccccc1Cn1cc(NC(=O)c2noc3c2CC(C(C)(C)C)CC3)cn1 (configuration not stated)  Pantothenate synthetase (Mycobacterium tuberculosis)   inhibition                %             89
2  CC(C)(C)C1CCc2onc(C(=O)Nc3cnn(Cc4ccc(C(=O)NCCc5ccccc5)cc4)c3)c2C1 (configuration not stated)  Pantothenate synthetase (Mycobacterium tuberculosis)   inhibition                %             78

[in] Return inhibition measured with Pantothenate synthetase (Mycobacterium tuberculosis) given this compound: CC(C)(C)C1CCc2onc(C(=O)Nc3cnn(Cc4ccc(C(=O)NCc5ccccc5)cc4)c3)c2C1 (configuration not stated)
[out] 82

[in] Return inhibition measured with Pantothenate synthetase (Mycobacterium tuberculosis) given this compound: O=C(Nc1cnn(Cc2ccc(Cl)cc2Cl)c1)c1noc2c1CCCC2
[out] 18

[in] Return inhibition measured with Pantothenate synthetase (Mycobacterium tuberculosis) given this compound: COc1ccc(Cc2noc(NC(=O)c3noc4c3CC(C(C)(C)C)CC4)c2C(N)=O)cc1 (configuration not stated)
[out] 79

[in] Return inhibition measured with Pantothenate synthetase (Mycobacterium tuberculosis) given this compound: COC(=O)c1ccc(Cn2cc(NC(=O)c3noc4c3CC(C(C)(C)C)CC4)cn2)cc1 (configuration not stated)
[out] 100

----------
Target: Pantothenate synthetase (Mycobacterium tuberculosis, UniProt P9WIL5)
Sequence (P9WIL5 whole entry): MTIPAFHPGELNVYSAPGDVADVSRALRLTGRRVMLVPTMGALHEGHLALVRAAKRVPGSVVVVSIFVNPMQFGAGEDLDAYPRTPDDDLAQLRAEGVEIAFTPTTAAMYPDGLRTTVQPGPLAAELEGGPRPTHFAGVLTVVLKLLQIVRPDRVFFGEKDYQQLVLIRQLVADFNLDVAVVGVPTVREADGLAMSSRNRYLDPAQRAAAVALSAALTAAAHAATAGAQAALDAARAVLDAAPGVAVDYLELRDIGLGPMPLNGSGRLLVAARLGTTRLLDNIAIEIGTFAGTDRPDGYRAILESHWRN
Entries and their pIC50 values follow.
# reply with the number alone; pIC50 is -log10 of concentration in mol/L

Examples with their reported pIC50 follow.
>>> df
                                   compound  numeric_value
0  CC(C)(C)OC(=O)c1ccc(Cn2cc(NC(=O)c3noc4c3CC(C(C)(C)C)CC4)cn2)cc1 (stereo unspecified)           6.60
1  CC(C)(C)C1CCc2onc(C(=O)Nc3cnn(Cc4ccc(F)cc4)c3)c2C1 (stereo unspecified)           6.82
2  CC(C)(C)C1CCc2onc(C(=O)Nc3cnn(Cc4ccc(Cl)cc4)c3)c2C1 (stereo unspecified)           6.85
3  CC(C)(C)C1CCc2onc(C(=O)Nc3cnn(Cc4ccc(C(=O)NCc5ccccc5)cc4)c3)c2C1 (stereo unspecified)           6.68
4  CC(C)(C)C1CCc2onc(C(=O)Nc3cnn(Cc4ccccc4I)c3)c2C1 (stereo unspecified)           6.80

Field: next compound
[in] Form field: reported pIC50 of COc1ccc(Cc2noc(NC(=O)c3noc4c3CC(C(C)(C)C)CC4)c2C(N)=O)cc1 (stereo unspecified)
[out] 5.15
